ASSAY_TARGET: CDK2/Cyclin E1 (Homo sapiens, UniProt P24941)
ASSAY_SUMMARY: CDK2/Cyclin E1 Caliper LabChip EZ Reader mobility shift assay
Assay type: biochemical
Design: purchased Eurofins 14-475
RUN_CONDITIONS: read-out: Caliper Assay (CDK2/CCNE1): IC50
Here, each record is paired with measured IC50 data.

Query block: Enter reported IC50 observed with CDK2/Cyclin E1 (Homo sapiens, UniProt P24941) for COC[C@H]1CCCN(C(=O)[C@@H](NC(=O)[C@@H]2CN(C(=O)c3cncs3)CC23CN(C(=O)[C@H]2CC2(C)C)C3)[C@@H](C)O[C@H](C)C2CCCCC2)C1 [I-466]
Result block: ≤ 0.01 µM

Query block: Lab note: need IC50 with CDK2/Cyclin E1 (Homo sapiens, UniProt P24941) for entry CNC(=O)[C@@H](NC(=O)[C@@H]1CN(C(=O)c2cncs2)CC12CN(Cc1ccn[nH]1)C2)[C@@H](C)OCC12CCC(CC1)OC2 [I-351] , please look it up.
Result block: > 10 µM

Next, consider the following compound.
Query block: Look up IC50 with CDK2/Cyclin E1 (Homo sapiens, UniProt P24941) for this compound: COC[C@H]1CCCN(C(=O)CNC(=O)[C@@H]2CN(C(=O)c3cncs3)CC23CN(C(=O)[C@H]2CC2(C)C)C3)C1 [I-323]
Result block: 1 to 10 µM

----------
ASSAY_TARGET: CDK2/Cyclin E1 (Homo sapiens)
ASSAY_SUMMARY: CDK2/Cyclin E1 Caliper LabChip EZ Reader mobility shift assay
Format: biochemical
Parameters: purchased Eurofins 14-475
RUN_CONDITIONS: read-out: Caliper Assay (CDK2/CCNE1): IC50
ENDPOINT_LABEL: IC50

Worked cases, IC50 given:
Query block: CDK2/Cyclin E1 (Homo sapiens) / IC50 / CC1(C)C[C@@H]1C(=O)N1CC2(CN(C(=O)c3cnn(Cc4ccccc4)c3)CC2C(=O)Nc2ncc(-c3ccccc3)o2)C1 (stereo partly drawn) : value?
Result block: 1 to 10 µM

Query block: Please state recorded IC50 (tested on CDK2/Cyclin E1 (Homo sapiens)) of CNC(=O)[C@@H](NC(=O)[C@@H]1CN(C(=O)c2cnn(Cc3ccccc3)c2)CC12CN(C(=O)CC1(CO)CC1)C2)[C@@H](C)OCc1ccccc1 [I-92A]
Result block: > 10 µM

Query block: Missing value: IC50, CDK2/Cyclin E1 (Homo sapiens), entry CNC(=O)[C@@H](NC(=O)[C@H]1CN(C(=O)c2sc(Cl)nc2C)CC12CN(C(=O)[C@H]1CC1(C)C)C2)[C@@H](C)OCC1CCCCC1 [I-208B] . Fill in?
Result block: 0.1 to 1 µM

Query block: Query for CDK2/Cyclin E1 (Homo sapiens): what IC50 does the record show for CC1(C)C[C@@H]1C(=O)N1CC2(CN(C(=O)c3cnn(Cc4ccccc4)c3)C[C@H]2C(=O)N[C@@H]2CCN(C3CC3)C2=O)C1 ?
Result block: > 10 µM

Query block: Test system CDK2/Cyclin E1 (Homo sapiens); read-out IC50; what value for COC[C@H]1CCCN(C(=O)[C@@H](NC(=O)[C@@H]2CN(C(=O)c3cncs3)CC23CN(C(=O)[C@H]2CC2(C)C)C3)[C@@H](C)O[C@@H](C)C2CCCCC2)C1 [I-467] ?
Result block: ≤ 0.01 µM

Below: the item to evaluate.
Query block: Write down the reported IC50 of CNC(=O)[C@@H](NC(=O)[C@@H]1CN(C(=O)c2cncs2)CC12CN(Cc1ccco1)C2)[C@@H](C)OCC12CCC(CC1)OC2 , test system: CDK2/Cyclin E1 (Homo sapiens).
Result block: > 10 µM
